All figures here come from patent US20210163599A1.

Target: T1, huPD-L1 on H441 cells (human, UniProt Q9NZQ7 19-290)
T1 construct: whole, on cells; also called H441 cells (expressing huPD-L1)
T1 sequence (Q9NZQ7 19-290): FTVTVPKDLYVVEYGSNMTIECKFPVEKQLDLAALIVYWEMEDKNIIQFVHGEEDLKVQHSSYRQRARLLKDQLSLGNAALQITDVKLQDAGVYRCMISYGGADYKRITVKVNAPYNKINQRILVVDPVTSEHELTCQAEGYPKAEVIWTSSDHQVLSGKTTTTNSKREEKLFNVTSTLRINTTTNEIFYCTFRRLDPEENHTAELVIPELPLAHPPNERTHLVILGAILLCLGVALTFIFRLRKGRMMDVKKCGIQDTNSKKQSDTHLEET
Test: flow cytometry, % of positive H441 cells (human lung adenocarcinoma cells expressing PD-L1)

binder	EC50 / nM
AVA04-211 (designed binder, also called AVA04 clone 211) Affimer polypeptide: MIPRGLSEAKPATPEIQEIVDKVKPQLEEKTNETYGKLEAVQYKTQVLAKDWGPSNWWSTNYYIKVRAGDNKYMHLKVFNGPVDDKTLSKDADRVLTGYQVDKNKDDELTGFAAAGHHHHHH	0.21
AVA04-231 (designed binder, also called AVA04 clone 231) Affimer polypeptide: MIPRGLSEAKPATPEIQEIVDKVKPQLEEKTNETYGKLEAVQYKTQVLANTWFPESFWSTNYYIKVRAGDNKYMHLKVFNGPDDNQERQEHADRVLTGYQVDKNKDDELTGFAAAGHHHHHH	9.51
AVA04-261 (designed binder) MIPRGLSEAKPATPEIQEIVDKVKPQLEEKTNETYGKLEAVQYKTQVLAHAYGPRDWDSTNYYIKVRAGDNKYMHLKVFNGPPADHVLEEAADRVLTGYQVDKNKDDELTGFAAAGHHHHHH	0.043
